# study-target: Tie2 (Homo sapiens, UniProt Q02763)
# Sequence (Q02763 23-1124): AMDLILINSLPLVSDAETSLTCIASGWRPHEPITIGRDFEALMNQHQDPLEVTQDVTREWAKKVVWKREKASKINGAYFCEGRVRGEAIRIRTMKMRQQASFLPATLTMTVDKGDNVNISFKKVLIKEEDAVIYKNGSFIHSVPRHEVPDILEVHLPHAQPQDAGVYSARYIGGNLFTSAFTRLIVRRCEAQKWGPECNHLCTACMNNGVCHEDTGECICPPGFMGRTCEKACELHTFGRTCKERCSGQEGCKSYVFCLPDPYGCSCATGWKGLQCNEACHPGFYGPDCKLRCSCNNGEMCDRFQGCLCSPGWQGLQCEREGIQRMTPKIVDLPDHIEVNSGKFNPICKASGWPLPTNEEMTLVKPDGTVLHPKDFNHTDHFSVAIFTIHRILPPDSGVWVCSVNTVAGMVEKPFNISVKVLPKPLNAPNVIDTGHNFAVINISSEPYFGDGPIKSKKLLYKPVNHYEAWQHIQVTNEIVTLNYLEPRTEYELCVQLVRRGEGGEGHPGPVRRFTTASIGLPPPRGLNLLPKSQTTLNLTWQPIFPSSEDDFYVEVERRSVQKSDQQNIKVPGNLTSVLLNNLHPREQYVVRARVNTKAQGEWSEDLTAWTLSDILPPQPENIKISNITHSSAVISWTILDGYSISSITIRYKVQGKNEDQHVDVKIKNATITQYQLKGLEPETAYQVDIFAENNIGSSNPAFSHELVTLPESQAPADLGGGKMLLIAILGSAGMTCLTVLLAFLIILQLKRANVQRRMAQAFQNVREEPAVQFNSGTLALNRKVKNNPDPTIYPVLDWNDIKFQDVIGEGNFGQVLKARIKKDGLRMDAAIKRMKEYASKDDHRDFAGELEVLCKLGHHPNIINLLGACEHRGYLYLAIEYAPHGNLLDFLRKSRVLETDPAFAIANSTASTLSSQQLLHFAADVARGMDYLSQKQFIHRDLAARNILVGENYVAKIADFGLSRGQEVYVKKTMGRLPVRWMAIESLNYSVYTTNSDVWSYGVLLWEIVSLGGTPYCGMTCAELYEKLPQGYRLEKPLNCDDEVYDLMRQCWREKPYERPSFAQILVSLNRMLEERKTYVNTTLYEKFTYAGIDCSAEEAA
# assay-summary: Tie2 autophosphorylation in Ang-1 stimulated HUVECs
# Format: cell-based
# Set-up: endogenous in cells; host or cells: HUVEC
# assay-conditions: 200 ng/mL Ang-1 for 10 minutes
pIC50: −log10 of the molar value.
assay-endpoint: pIC50

Lookup: Suppose we examine the molecule "Cc1ccc(-n2nc(C(C)(C)C)cc2NC(=O)NCc2cc(F)ccc2Oc2ccc3c(cnn3CCO)c2)cc1" ; what pIC50 value has been reported?
Found: > 7.48

====

# study-target: p38α (Homo sapiens, UniProt Q16539)
# Sequence (Q16539 whole entry): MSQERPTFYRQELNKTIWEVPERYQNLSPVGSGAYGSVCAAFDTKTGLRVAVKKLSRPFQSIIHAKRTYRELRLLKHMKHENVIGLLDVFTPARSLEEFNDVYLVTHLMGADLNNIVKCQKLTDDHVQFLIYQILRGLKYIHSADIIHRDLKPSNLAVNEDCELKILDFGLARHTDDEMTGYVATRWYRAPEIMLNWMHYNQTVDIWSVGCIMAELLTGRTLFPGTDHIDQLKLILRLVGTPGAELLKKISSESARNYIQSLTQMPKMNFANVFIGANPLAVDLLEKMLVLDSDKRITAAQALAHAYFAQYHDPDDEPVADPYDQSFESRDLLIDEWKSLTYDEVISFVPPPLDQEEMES
# assay-summary: in-house p38α radioactive kinase assay using ATF-2 as a substrate
# Assay type: biochemical
# assay-conditions: ATF-2 substrate
Please go through the items and note down their IC50.

Lookup: What value of IC50 has been recorded for this entry: Cn1nc(C(C)(C)C)cc1NC(=O)NCc1cc(F)ccc1Oc1ccc2c(cnn2CC(C)(C)O)c1 [Example 138]
Found: < 2 nM

Lookup: Give its IC50 value. Item: Cc1ccc(-n2nc(C(C)(C)C)cc2NC(=O)NCc2cc(F)ccc2Oc2ccc3c(cnn3C)c2)cc1 [Example 94]
Found: < 2 nM
